method.description: compound fluorescence in toxin protease inhibitor counterscreen, primary screen, artefact control for toxin protease inhibitor project, biochemical, multiplex microsphere, HTS (AID 624483)
test.parameters: compound autofluorescence counterscreen, microsphere flow cytometry; active compounds read high
Hit rate of the full screen: of about 360,000 compounds, about 11,000 (3.1%) were called active. Another 2% or so got no clear call; they are omitted. The list comes from a sample in which actives are over-represented; it also holds close analogues and randomly drawn compounds.
measure.name: fluorescence intensity

>>> observed_measurement("CCn1c(Cc2cccs2)nnc1SCC(=O)c1ccc(C)cc1")
23000
>>> observed_measurement("Cn1c(Cc2cccs2)nnc1SCC(=O)Nc1ccccc1")
5420
>>> observed_measurement("O=C1CCCc2c1[nH]c1ccc(Br)cc21")
10300
>>> observed_measurement("Cc1ccc(Cc2c(-c3ccc(Cl)cc3)nc3c4ccccc4ccn23)cc1")
4990
>>> observed_measurement("CCn1c(SCC(=O)c2ccc(Cl)s2)nnc1-c1cccs1")
3490

Recorded values, source PubChem BioAssay AID624483.
